Measured GI50 of individual entries
Target: Androgen receptor (Homo sapiens) (UniProt P10275)
Sequence (whole entry): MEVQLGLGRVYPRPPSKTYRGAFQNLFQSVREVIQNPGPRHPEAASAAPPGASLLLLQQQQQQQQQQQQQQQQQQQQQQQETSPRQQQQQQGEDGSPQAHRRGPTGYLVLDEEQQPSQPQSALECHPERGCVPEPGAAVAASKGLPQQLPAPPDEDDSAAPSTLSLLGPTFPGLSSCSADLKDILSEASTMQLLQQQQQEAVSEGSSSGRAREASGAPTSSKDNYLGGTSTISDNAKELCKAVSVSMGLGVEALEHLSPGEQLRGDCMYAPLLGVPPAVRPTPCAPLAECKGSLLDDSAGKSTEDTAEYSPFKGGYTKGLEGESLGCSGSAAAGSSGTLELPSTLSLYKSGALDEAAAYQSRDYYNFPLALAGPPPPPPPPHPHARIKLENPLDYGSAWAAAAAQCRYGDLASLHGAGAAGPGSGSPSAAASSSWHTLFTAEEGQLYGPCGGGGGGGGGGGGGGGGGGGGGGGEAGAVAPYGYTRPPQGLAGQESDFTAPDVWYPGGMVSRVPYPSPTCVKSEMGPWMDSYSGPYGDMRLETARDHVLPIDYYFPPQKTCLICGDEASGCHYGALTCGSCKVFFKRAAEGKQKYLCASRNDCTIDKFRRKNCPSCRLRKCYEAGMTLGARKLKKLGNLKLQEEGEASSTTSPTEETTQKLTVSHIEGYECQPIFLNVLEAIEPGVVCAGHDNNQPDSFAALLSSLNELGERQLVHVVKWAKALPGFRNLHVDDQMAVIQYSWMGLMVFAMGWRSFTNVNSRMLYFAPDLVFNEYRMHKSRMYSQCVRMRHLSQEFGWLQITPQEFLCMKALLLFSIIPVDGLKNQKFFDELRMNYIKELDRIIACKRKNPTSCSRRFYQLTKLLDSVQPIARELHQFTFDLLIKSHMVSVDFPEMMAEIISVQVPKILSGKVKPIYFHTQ
Just the number in µM, nothing appended.

The examples below pair each entry with its known result.
N#Cc1ccc(OCc2cn(CC(=O)Nc3ccc(Cl)c(C(F)(F)F)c3)nn2)cc1
5.09
N#Cc1ccc(-n2cc(COc3ccc(F)cc3)nn2)cc1C(F)(F)F
19.2

Item: N#Cc1ccc(-n2cc(CSc3ccc(F)cc3)nn2)cc1C(F)(F)F | GI50: 16.8

Item: N#Cc1ccc(OCc2cn(CC(=O)Nc3ccc(C#N)c(C(F)(F)F)c3)nn2)cc1 | GI50: 6.42

---

target: Androgen receptor (Homo sapiens); test: Antagonist activity at androgen receptor in human LNCAP cells assessed as reduction in PSA mRNA expression at 10 uM after 24 hrs by RT-qPCR analysis relative to control; format: cell-based
Active and inactive are the calls of the source. The rule behind the calls is not given here.
metric: inhibition

The examples below pair each entry with its known result.
N#Cc1ccc(NC(=O)Cn2cc(CSc3ccc(F)cc3)nn2)cc1C(F)(F)F
inactive
N#Cc1ccc(OCc2cn(-c3ccc(C#N)c(C(F)(F)F)c3)nn2)cc1
> 65%
N#Cc1ccc(-n2cc(COc3ccc([N+](=O)[O-])cc3)nn2)cc1C(F)(F)F
> 65%
N#Cc1ccc(NC(=O)Cn2cc(COc3ccc(F)cc3)nn2)cc1C(F)(F)F
inactive
O=[N+]([O-])c1ccc(OCc2cn(-c3cccc(C(F)(F)F)c3)nn2)c(C(F)(F)F)c1
inactive
N#Cc1ccc(-n2cc(-c3cccc(Cl)c3F)nn2)cc1C(F)(F)F
inactive
N#Cc1ccc(-n2cc(COc3ccccc3)nn2)cc1C(F)(F)F
> 65%
N#Cc1ccc(-n2cc(COc3cccc(C(F)(F)F)c3F)nn2)cc1C(F)(F)F
inactive
CC(O)c1c(COc2ccc(C#N)cc2)nnn1-c1ccc(C#N)c(C(F)(F)F)c1 (configuration not stated)
> 65%
N#Cc1ccc(OCc2cn(CC(=O)Nc3ccc(Cl)c(C(F)(F)F)c3)nn2)cc1
inactive

Summary line: N#Cc1ccc(-n2nnc(COc3ccc([N+](=O)[O-])cc3C(F)(F)F)c2I)cc1C(F)(F)F , Androgen receptor (Homo sapiens), reported inhibition = inactive

Summary line: N#Cc1ccc(OCc2cn(CC(=O)Nc3ccc(C#N)c(C(F)(F)F)c3)nn2)cc1 , Androgen receptor (Homo sapiens), reported inhibition = 70%

---

target: Androgen receptor (Homo sapiens) (UniProt P10275); assay: Antagonist activity at androgen receptor in human LNCAP cells assessed as reduction in PSA mRNA expression at 10 uM after 24 hrs by RT-qPCR analysis relative to control; type: cell-based
Activity calls are given as the source filed them. The rule behind the calls is not given here.
metric: inhibition

N#Cc1ccc(-n2cc(COc3ccc([N+](=O)[O-])cc3C(F)(F)F)nn2)cc1C(F)(F)F
inactive
N#Cc1ccc(-n2cc(COc3ccc(C(F)(F)F)cc3)nn2)cc1C(F)(F)F
inactive
N#Cc1ccc(-n2cc(-c3cccc(C(F)(F)F)c3F)nn2)cc1C(F)(F)F
inactive
N#Cc1ccc(-n2cc(CSc3ccc(F)cc3)nn2)cc1C(F)(F)F
> 65%
N#Cc1ccc(-n2cc(COc3ccccc3[N+](=O)[O-])nn2)cc1C(F)(F)F
> 65%

Item: N#Cc1ccc(-n2cc(COc3cccc(C(F)(F)F)c3)nn2)cc1C(F)(F)F | inhibition: inactive

Item: N#Cc1ccc(-n2cc(COc3ccc(F)c(C(F)(F)F)c3)nn2)cc1C(F)(F)F | inhibition: inactive

Item: N#Cc1ccc(-n2cc(COc3ccc(F)cc3)nn2)cc1C(F)(F)F | inhibition: > 65%

Item: N#Cc1ccc(-n2cc(-c3cccc(F)c3F)nn2)cc1C(F)(F)F | inhibition: 38%

Item: N#Cc1ccccc1OCc1cn(-c2ccc(C#N)c(C(F)(F)F)c2)nn1 | inhibition: > 65%
